Target: Neuronal acetylcholine receptor subunit alpha-7 (Homo sapiens, UniProt P36544)
Sequence (P36544 whole entry): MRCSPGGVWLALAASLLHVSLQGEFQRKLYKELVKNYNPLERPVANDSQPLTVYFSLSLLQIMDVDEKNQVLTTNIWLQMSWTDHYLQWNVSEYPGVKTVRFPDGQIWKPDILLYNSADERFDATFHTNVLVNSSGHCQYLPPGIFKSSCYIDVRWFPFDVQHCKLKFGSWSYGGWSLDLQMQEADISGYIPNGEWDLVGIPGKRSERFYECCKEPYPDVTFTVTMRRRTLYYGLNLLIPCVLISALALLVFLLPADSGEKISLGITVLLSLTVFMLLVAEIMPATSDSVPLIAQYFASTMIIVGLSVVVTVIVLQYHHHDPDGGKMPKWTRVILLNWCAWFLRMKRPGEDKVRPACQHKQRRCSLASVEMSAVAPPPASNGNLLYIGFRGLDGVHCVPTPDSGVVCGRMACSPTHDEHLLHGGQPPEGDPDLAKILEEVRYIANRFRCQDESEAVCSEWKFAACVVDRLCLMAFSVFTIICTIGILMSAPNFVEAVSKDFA
Test: Antagonist activity at human alpha7 nAChR expressed in xenopus oocyte assessed as inhibition of acetylcholine-induced current by two-electrode voltage clamp assay
Counter-ions that a name gives are not always drawn.
Assign a class from recorded EC50; defined classes: small value (below 8 µM), mid value (8 µM to below 20 µM), large value (20 µM or more)

# COMPOUND, QUALITATIVE_LABEL
data = [
    ("C=CC(C)(C)c1[nH]c2cc(Br)ccc2c1CCNC [DESFORMYLFLUSTRABROMINE HYDROCHLORIDE]", "small value"),
    ("C=CC(C)(C)c1[nH]c2cc(Br)ccc2c1CCN", "small value"),
    ("CNCCc1c[nH]c2cc(Br)ccc12", "mid value"),
    ("CCC(C)(C)c1[nH]c2cc(Br)ccc2c1CCNC", "large value"),
    ("CNCCc1c(C(C)(C)C)[nH]c2ccccc12", "small value"),
    ("CCCc1[nH]c2ccccc2c1CCNC", "large value"),
    ("CCC(C)c1[nH]c2ccccc2c1CCNC (racemic)", "mid value"),
    ("CCCc1[nH]c2cc(Br)ccc2c1CCNC", "large value"),
    ("C=CCc1[nH]c2cc(Br)ccc2c1CCNC", "large value"),
    ("C=CC(C)(C)c1[nH]c2ccccc2c1CCNC", "small value"),
]
